FYI, the data here is from patent US20230250188A1.

Recorded kon for the following binders
system.name: T1, recombinant human GPC1 protein (R&D Systems) (human, UniProt P35052 24-530)
T1 construct: Bought recombinant protein (R&D Systems); also called human GPC-1 antigen; Glypican-1
T1 sequence: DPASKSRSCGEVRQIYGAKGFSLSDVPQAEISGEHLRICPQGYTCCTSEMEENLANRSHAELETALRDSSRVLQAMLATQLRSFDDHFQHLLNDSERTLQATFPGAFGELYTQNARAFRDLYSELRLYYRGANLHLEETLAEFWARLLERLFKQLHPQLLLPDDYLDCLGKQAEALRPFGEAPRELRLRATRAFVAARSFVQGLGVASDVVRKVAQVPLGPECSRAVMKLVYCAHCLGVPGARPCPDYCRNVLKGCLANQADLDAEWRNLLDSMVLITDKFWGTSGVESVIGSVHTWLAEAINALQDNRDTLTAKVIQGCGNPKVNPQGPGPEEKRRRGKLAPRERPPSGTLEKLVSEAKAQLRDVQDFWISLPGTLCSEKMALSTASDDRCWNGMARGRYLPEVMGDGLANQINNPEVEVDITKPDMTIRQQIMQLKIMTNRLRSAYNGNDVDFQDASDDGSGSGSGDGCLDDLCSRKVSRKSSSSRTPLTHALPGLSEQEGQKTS
experimental.details: SPR (Biacore 8K); antibody captured by anti-human IgG (Fc) on a CM5 chip, recombinant human GPC1 flowed over
Give the value, in units of M⁻¹ s⁻¹, as a plain number.

>>> experimental_result("humanized anti-GPC1 monoclonal antibody clone T1 (antibody, human IgG4 S228P, kappa, V domains shown, IgG) VH: QVQLVQSGAEVKKPGASVKVSCKASGYTFTGYYMHWVRQAPGQGLEWMGEINPSTGDTTYNQKFKARVTMTRDTSTSTVYMELSSLRSEDTAVYYCAREKRDDGVFAYWGQGTLVTVSS VL: DIVMTQSPSFLSASVGDRVTITCRASQGISSYLVWYQQKPGKAPKLLIYSASVLQSGVPSRFSGRGYGTDFTLTISSLQPEDFATYYCQQSFSIPPVTFGGGTKVEIKR")
238000
>>> experimental_result("humanized anti-GPC1 monoclonal antibody clone T43 (antibody, human IgG4 S228P, kappa, V domains shown, IgG) VH: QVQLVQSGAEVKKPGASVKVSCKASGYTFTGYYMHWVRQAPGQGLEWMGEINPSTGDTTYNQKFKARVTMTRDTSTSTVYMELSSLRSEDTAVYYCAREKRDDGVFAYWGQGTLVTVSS VL: DIVMTQSPSSLSASVGDRVTITCRASQGIRSALAWYQQKPGKAPKLLIYDASNLQSGVPSRFSGSGSGTDFTLTISDVQAEDFGTYYCQQSFGPPRTFGQGTRLEIKR")
169000

Query :: Input humanized anti-GPC1 monoclonal antibody clone T59 (antibody, human IgG4 S228P, kappa, V domains shown, IgG) VH: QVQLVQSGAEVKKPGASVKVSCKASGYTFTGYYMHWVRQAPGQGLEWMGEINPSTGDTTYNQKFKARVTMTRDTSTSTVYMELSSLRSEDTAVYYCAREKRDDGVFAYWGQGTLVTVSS VL: EIVMTQSPSSLSASVGDRVTITCQASQHISNKLNWYQQKPGKAPKLLIYDASNLETGVPSRFSGSGYGTDFTFTVSSLQPEDIATYYCQQYDNLPITFGQGTRLEIKR , output reported kon.
Result :: 197000
